Data provenance: patent US20240299557A1

Biological target: HBV P protein (DNA polymerase) (Hepatitis B virus genotype D subtype ayw, UniProt P03156)
Construct: expressed in transfected cells; host or cells: Huh7-LgBiT cells transduced with pLVX-HBP-Puro lentivirus (Huh7-HBP)
Sequence (P03156 whole entry): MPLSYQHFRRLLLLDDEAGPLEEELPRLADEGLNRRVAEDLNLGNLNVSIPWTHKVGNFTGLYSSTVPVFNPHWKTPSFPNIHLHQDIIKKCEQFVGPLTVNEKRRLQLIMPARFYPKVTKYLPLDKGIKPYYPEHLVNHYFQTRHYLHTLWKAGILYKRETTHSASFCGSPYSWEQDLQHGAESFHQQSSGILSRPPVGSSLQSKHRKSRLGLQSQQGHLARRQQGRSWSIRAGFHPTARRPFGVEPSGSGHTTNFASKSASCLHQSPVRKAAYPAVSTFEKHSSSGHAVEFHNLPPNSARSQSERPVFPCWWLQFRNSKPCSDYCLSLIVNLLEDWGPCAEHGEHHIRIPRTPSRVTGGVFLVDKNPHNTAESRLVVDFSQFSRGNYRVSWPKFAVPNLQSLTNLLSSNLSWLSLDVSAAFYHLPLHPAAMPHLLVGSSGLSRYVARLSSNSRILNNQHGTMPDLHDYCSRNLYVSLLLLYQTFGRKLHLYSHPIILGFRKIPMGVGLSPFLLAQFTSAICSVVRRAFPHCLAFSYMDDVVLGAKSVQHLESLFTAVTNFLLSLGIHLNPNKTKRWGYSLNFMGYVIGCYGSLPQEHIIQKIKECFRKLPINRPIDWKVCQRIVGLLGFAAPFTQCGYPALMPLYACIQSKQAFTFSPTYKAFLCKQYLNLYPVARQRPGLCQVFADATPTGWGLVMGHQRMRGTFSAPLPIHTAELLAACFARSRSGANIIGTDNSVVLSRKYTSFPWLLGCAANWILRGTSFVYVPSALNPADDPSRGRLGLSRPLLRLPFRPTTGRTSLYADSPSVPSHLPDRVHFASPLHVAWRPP
Experiment: Degradation of HBV P protein (DNA polymerase) in Huh7-HBP cell line (Nano-Glo HiBiT/LgBiT luminescence)
Type: cell-based
Conditions: 1000 nM, read-out: Degradation activity of DNA polymerase at different concentrations of compounds
EXPERIMENTAL READOUT: inhibition at 1 µM

Here are 5 compounds together with their reported answers.
# input Field request: inhibition at 1 µM | item: C=C1[C@H](CNC(=O)CN2CCC(CCCC(=O)N[C@H](C(=O)N3C[C@H](O)C[C@H]3C(=O)NCc3ccc(-c4scnc4C)cc3)C(C)(C)C)CC2)[C@H](O)C[C@@H]1n1cnc2c(=O)[nH]c(N)nc21 [VIII]
# output 30 to 70%

# input Field request: inhibition at 1 µM | item: C=C1[C@H](CO)[C@H](O)C[C@@H]1n1cnc2c(OCCN3CCC(CCCC(=O)N[C@H](C(=O)N4C[C@H](O)C[C@H]4C(=O)NCc4ccc(-c5scnc5C)cc4)C(C)(C)C)CC3)nc(N)nc21 [III]
# output 30 to 70%

# input Field request: inhibition at 1 µM | item: C=C1[C@H](CNC(=O)CCCCCCCCC(=O)N[C@H](C(=O)N2C[C@H](O)C[C@H]2C(=O)NCc2ccc(-c3scnc3C)cc2)C(C)(C)C)[C@H](O)C[C@@H]1n1cnc2c(=O)[nH]c(N)nc21 [Compound VI]
# output 30 to 70%

# input Field request: inhibition at 1 µM | item: C=C1[C@H](CNC(=O)CN2CCN(CCCC(=O)N[C@H](C(=O)N3C[C@H](O)C[C@H]3C(=O)NCc3ccc(-c4scnc4C)cc3)C(C)(C)C)CC2)[C@H](O)C[C@@H]1n1cnc2c(=O)[nH]c(N)nc21 [Compound VII]
# output < 30%

# input Field request: inhibition at 1 µM | item: C=C1[C@H](CO)[C@H](O)C[C@@H]1n1cnc2c(OCCCCCCCCCC(=O)N[C@H](C(=O)N3C[C@H](O)C[C@H]3C(=O)NCc3ccc(-c4scnc4C)cc3)C(C)(C)C)nc(N)nc21 [Compound I]
# output 30 to 70%

Others:
# input Field request: inhibition at 1 µM | item: C=C1[C@H](CO)[C@H](O)C[C@@H]1n1cnc2c(OCCOCCOCCCC(=O)N[C@H](C(=O)N3C[C@H](O)C[C@H]3C(=O)NCc3ccc(-c4scnc4C)cc3)C(C)(C)C)nc(N)nc21 [Compound V]
# output 30 to 70%

# input Field request: inhibition at 1 µM | item: C=C1[C@H](CO)[C@H](O)C[C@@H]1n1cnc2c(OCCN3CCN(CCCC(=O)N[C@H](C(=O)N4C[C@H](O)C[C@H]4C(=O)NCc4ccc(-c5scnc5C)cc4)C(C)(C)C)CC3)nc(N)nc21 [II]
# output < 30%
